# Assayed system: T1, Dimeric fibrinogen-like domain of mouse (Mus musculus) Ang-2 conjugated to human IgG1 (mouse (Mus musculus))
# T1 construct: also called Dimeric Mouse Ang-2FD; Mouse Ang-2FD-hFc
# T1 sequence (chain, as listed by the source limits assumed): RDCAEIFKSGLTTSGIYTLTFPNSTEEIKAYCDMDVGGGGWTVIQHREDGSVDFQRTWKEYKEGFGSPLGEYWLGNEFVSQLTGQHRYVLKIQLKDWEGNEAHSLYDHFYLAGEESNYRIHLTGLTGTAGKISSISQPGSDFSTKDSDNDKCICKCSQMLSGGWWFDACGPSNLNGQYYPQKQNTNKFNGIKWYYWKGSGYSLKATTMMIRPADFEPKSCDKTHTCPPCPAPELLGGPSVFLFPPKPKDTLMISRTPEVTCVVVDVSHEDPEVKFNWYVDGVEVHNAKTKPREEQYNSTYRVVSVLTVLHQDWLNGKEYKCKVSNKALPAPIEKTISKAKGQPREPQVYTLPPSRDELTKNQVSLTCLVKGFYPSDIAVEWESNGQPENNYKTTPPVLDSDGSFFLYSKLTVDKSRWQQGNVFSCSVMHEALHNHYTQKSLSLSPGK
# Assay name: SPR, antibody captured, room temp
Attribute measured: T1/2

Quick check: T1/2 of H2M744N (antibody, V domains shown) VH: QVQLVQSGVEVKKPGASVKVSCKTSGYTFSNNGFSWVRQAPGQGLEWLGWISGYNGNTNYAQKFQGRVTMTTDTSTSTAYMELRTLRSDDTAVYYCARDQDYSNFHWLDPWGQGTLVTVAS VL: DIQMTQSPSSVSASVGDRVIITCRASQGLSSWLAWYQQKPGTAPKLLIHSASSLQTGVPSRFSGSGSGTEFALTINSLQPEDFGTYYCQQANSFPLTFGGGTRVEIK ?
3.72 h
